B1: CROP (parent)
chain: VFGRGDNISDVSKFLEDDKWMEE

- Variants of: B1
- protocol_text: protein stability index of a GFP-peptide fusion (GPS, HEK-293T) (PSI 1-6); higher = more stable;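 further: lentivirally expressed fusions sorted by FACS into six bins by GFP to DsRed ratio, PSI derived from sequencing read proportions per bin multiplied by bin number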
- particulars: c terminus: native
What protein stability index was measured for each of the following?
# respond with the number and nothing more

QUERY: Identify the reported protein stability index for the following entry. "N7R"
RESULT: 2.61

QUERY: Identify the reported protein stability index for the following entry. "I8D"
RESULT: 1.89

QUERY: Identify the reported protein stability index for the following entry. "I8A"
RESULT: 2.35

QUERY: Identify the reported protein stability index for the following entry. "K13T"
RESULT: 1.72

QUERY: Identify the reported protein stability index for the following entry. "V11R"
RESULT: 2.12

QUERY: Identify the reported protein stability index for the following entry. "R4W"
RESULT: 1.39

QUERY: Identify the reported protein stability index for the following entry. "G5W"
RESULT: 2.02

QUERY: Identify the reported protein stability index for the following entry. "E22C"
RESULT: 4.69

QUERY: Identify the reported protein stability index for the following entry. "M21E"
RESULT: 4

QUERY: Identify the reported protein stability index for the following entry. "K19C"
RESULT: 1.62

QUERY: Identify the reported protein stability index for the following entry. "N7T"
RESULT: 1.89

QUERY: Identify the reported protein stability index for the following entry. "I8T"
RESULT: 2.62

QUERY: Identify the reported protein stability index for the following entry. "D10N"
RESULT: 2.04

QUERY: Identify the reported protein stability index for the following entry. "V11N"
RESULT: 2.33

QUERY: Identify the reported protein stability index for the following entry. "G5T"
RESULT: 2.63

QUERY: Identify the reported protein stability index for the following entry. "N7Y"
RESULT: 1.97

QUERY: Identify the reported protein stability index for the following entry. "S9Q"
RESULT: 2.41

QUERY: Identify the reported protein stability index for the following entry. "E23K"
RESULT: 4.76

QUERY: Identify the reported protein stability index for the following entry. "G3M"
RESULT: 1.51

QUERY: Identify the reported protein stability index for the following entry. "D17L"
RESULT: 1.29

QUERY: Identify the reported protein stability index for the following entry. "E23M"
RESULT: 4.68

QUERY: Identify the reported protein stability index for the following entry. "D6G"
RESULT: 2.08
